Molecular target: I84V HIV protease (Human immunodeficiency virus type 1 group M subtype B, UniProt P12497, I572V)
Construct: used to replace the wild-type HIV protease domain in the two-cistron system to construct the plasmid pTF-PR^I84V; Met-Gly (my reading of primer TF-F) + native transframe region (56 aa directly upstream of the protease in Gag-Pol) (N); Lys-Glu-Glu (my translation of primer PR-R: Shine-Dalgarno in frame before the stop codon) (C)
Assay: E. coli-based assay system: β-galactosidase activity, cells co-expressing TF-PR^I84V and β-Gal^PR
Experimental: Cell-Based β-galactosidase Activity Assay. Cell-based β-galactosidase activity assays were performed basically as described in Example 4. […] After the OD630 of the cells was determined by using an Ultramark microplate imaging system (Bio-Rad, Hercules, Calif.), ONPG was added at a final concentration of 200 μM to start the enzymatic reactions at 37° C. Changes in the OD415, indicating the production of ortho-nitrophenol, were continuously monitored with the Ultramark microplate imaging system. […]
quantity-name: pIC50
Entry type: numeric. Quantity: pIC50, the -log10 of concentration in molar units.

Requested read-out: pIC50. Entry: `CC(C)CN(C[C@@H](O)[C@H](Cc1ccccc1)NC(=O)O[C@H]1CCOC1)S(=O)(=O)c1ccc(N)cc1`
3.55
